# Tested on: TK-10 renal
# test-summary: NCI-60 one-dose screen, 48 h
# condition-description: 10 µM unless noted
# Description: Growth inhibition of the TK-10 human tumor cell line is measured as a screen for anti-cancer activity. Cells are grown in 96 well plates and exposed to the test compound for 48 hours. Compounds are tested at a single concentration, which is 10^-5 M for most compounds. The reported endpoint is percent growth (GI% or GIPRCNT), where numbers from 0 - 100% represent growth inhibition, and numbers from -100% - 0 represent cell death. For example, a value of 40 represents 60% growth inhibition. […]
The panel holds about 83,000 compounds, 20% with a hit somewhere; the sample as a whole holds those more often. Active and inactive are the calls of the source. Rule for the calls: active = growth percent below 10; inactive = the rest.
Pick one and only one: class 1 (active), class 0 (inactive)

Please share the test call associated with COc1cccc(/C=C\C(=O)c2ccccc2)c1 .
class 0

Lookup CCOC(=O)/C=C/C(=O)[C@H](CC(C)C)NC(=O)[C@H](Cc1ccccc1)NC(=O)OCc1ccccc1
class 0

Lookup O=C(Nc1ccc(CN2CCOCC2)cc1)c1[nH]ncc1Nc1ncnc2sccc12
class 1

Lookup C=C1C(=O)O[C@H]2[C@H]1CC/C(Cn1cc(Cn3ccc4cc(Cl)ccc43)nn1)=C\CC[C@@]1(C)O[C@@H]21
class 1

Lookup NS(=O)(=O)c1ccc(Nc2nc3n[nH]c(Nc4ccccc4)c3c(=O)[nH]2)cc1
class 0

Lookup O=C1Nc2ccccc2C12CC(c1ccc(Cl)cc1)=NN2 (stereo not given)
class 0

Lookup CCOC(=O)c1nc(Nc2cc(C)[nH]n2)c2ccccc2n1
class 0

Lookup COc1ccc(-c2csc(NC(=O)CN3CCN(c4cc5c(cc4F)c(=O)c(C(=O)O)cn5C4CC4)CC3)n2)cc1
class 0

Lookup Cc1noc(C)c1-c1cc(O)cc(C(O)c2ccccc2)c1 (stereo not given)
class 0

Lookup Nc1ccc(N2CCOCC2)cc1
class 0

Lookup CC[C@H](Nc1nc(N)nc(C)c1C#N)c1nc2cccc(NCc3ccc(C(=O)NO)cc3)c2c(=O)n1-c1ccccc1
class 1

Lookup CCCCCCCCCCCCCCCC(=O)OCC1OC(n2cnc3c(=S)nc(N)[nH]c32)C(OC(=O)CCCCCCCCCCCCCCC)C1OC(=O)CCCCCCCCCCCCCCC (stereo not given)
class 0

Lookup O=C1/C(=C/c2ccc(F)cc2)CN(C(=O)CCN2CCC(=NO)CC2)C/C1=C\c1ccc(F)cc1
class 1

Lookup COc1ccc2nc3cc(Cl)ccc3c(N3CCN(c4nccc(NCc5ccccc5)n4)CC3)c2c1
class 0

Lookup O=C(CO[N+](=O)[O-])Nc1ccc(C(=O)/C=C/c2ccc(Cl)cc2)cc1
class 0

Lookup CCCCCCCCCCCCCCCCCCNC(=O)[C@H]1CSC(c2ccc(F)c(OC)c2)N1 (stereo not given in full)
class 1

Lookup COc1ccc(C2c3ccc4ccccc4c3Oc3ncnc(N)c32)cc1 (stereo not given)
class 0

Lookup COc1ccc(S(=O)(=O)NCCNc2nccc(-c3c(-c4cccc([N+](=O)[O-])c4)nc4sccn34)n2)cc1
class 0

Lookup COCCCNc1nc(NC(=O)c2ccc(F)cc2C)cc(-c2cccnc2)n1
class 0

Lookup CCN(CC)CCCC(C)Nc1ccnc2c(OC)cccc12 (stereo not given)
class 0

----------
# Test system: DU-145 prostate
# test-summary: NCI-60 one-dose screen, 48 h (100 = growth as untreated, 0 = no growth, -100 = all killed)
# condition-description: 10 µM unless noted
Compounds without any hit were thinned out: in the full panel of roughly 83,000, 20% have a hit.
measure-name: growth (%)
Kindly provide the numeric value in % only, without the unit symbol.

Look up growth: O=c1c2cccc3c(Nc4ccccn4)ccc(c32)c2nc3ccccc3n12
91.8

Lookup C/C=C/C(N)=O
106

Lookup COc1ccc(-c2cnoc2-c2cc(OC)c3c(c2)OCCO3)cc1
-9.77

Lookup COc1nc2c(cc1S(=O)(=O)c1ccccc1)CCc1c-2cnn1Cc1ccccc1
83.5

Lookup OCCNCCNc1c2ccccc2nc2ccccc12
88.3

Lookup Cc1cc(N/N=C/c2nc(-c3ccc(Cl)cc3)oc2C)c2cc(Cl)ccc2n1
34.3

Lookup CCOC(=O)c1cnc2cc(Cl)c(F)cc2c1Nc1cccc(NS(C)(=O)=O)c1
101

Lookup O=S(=O)(NCCCNc1cc(-c2cn(-c3ccccc3)nc2-c2ccccc2)ccn1)c1ccc(C(F)(F)F)cc1
75.9

Lookup CC(C)c1c(C(=O)Nc2ccccc2)c(-c2ccccc2)c(-c2ccc(F)cc2)n1CC[C@@H]1CC=CC(=O)O1
26.3

Lookup Cc1ccc(C2CC3c4ccccc4C2C2CCCCN32)cc1 (stereo not given)
108
